Protocol: Half life in Sprague-Dawley rat at 30 mg/kg, po
Format: ADME, organism-based
Measurement Conditions: in vivo
Reported Property: half-life (min)
Value expressed in min; do not type the unit.

Which measured half-life value corresponds to CN1CC(F)(F)CCN(C)[C@H]2CC[C@@H](C2)Nc2ncc(C(F)(F)F)c(n2)-c2c[nH]c3c(P(C)(C)=O)c(ccc23)C1=O ?
468

====

Measurement Target: Serine/threonine-protein kinase D2 (Homo sapiens)
Sequence (Q9BZL6 whole entry): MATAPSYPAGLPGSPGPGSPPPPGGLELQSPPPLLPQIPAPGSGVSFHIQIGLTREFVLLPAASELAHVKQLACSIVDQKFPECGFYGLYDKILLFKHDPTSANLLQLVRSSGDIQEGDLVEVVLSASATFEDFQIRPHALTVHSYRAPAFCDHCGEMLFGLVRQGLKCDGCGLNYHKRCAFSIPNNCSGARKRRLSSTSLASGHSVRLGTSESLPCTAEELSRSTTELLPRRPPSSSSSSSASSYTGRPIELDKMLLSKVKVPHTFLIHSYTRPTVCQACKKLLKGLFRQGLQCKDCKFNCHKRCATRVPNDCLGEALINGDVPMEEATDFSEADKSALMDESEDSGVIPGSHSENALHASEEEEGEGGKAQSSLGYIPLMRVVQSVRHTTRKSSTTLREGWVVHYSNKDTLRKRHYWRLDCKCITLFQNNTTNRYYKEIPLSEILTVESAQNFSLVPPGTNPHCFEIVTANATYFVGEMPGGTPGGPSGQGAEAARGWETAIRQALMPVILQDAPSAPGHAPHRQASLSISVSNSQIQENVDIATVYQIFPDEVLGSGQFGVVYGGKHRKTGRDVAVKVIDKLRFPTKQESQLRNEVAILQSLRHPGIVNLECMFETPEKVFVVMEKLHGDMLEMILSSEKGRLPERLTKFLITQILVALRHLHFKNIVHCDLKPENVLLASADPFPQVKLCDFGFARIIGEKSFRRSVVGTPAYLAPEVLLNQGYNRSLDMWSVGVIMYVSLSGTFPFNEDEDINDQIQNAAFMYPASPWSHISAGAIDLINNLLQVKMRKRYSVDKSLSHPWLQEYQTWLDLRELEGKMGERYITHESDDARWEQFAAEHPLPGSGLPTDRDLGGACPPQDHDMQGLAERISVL
Protocol: Inhibition of PRKD2 (unknown origin)
Reported Property: pIC50
The value called pIC50 is obtained by taking minus log10 of the concentration in mol/L.

Any idea what pIC50 came out for CN1CC(F)(F)CCN(C)[C@H]2CC[C@@H](C2)Nc2ncc(C(F)(F)F)c(n2)-c2c[nH]c3c(P(C)(C)=O)c(ccc23)C1=O on Serine/threonine-protein kinase D2 (Homo sapiens)?
7.34

From: ChEMBL document CHEMBL6092221
